Please respond with reported remaining activity at 10 µM for every item in the list.
molecular target: CCR2 (Homo sapiens); construct: Membranes were prepared from THP-1 cells; endogenous in cells; host or cells: THP-1 cells (membrane preparation); test: CCR2 receptor membrane binding assay ([125I]MCP-1, THP-1 cell membranes, SPA beads); settings: @ 10 μM test compound; THP-1 membranes; read-out: CCR2 % ctrl @ 10 μM
Sequence (P41597 1-360 isoform P41597-2): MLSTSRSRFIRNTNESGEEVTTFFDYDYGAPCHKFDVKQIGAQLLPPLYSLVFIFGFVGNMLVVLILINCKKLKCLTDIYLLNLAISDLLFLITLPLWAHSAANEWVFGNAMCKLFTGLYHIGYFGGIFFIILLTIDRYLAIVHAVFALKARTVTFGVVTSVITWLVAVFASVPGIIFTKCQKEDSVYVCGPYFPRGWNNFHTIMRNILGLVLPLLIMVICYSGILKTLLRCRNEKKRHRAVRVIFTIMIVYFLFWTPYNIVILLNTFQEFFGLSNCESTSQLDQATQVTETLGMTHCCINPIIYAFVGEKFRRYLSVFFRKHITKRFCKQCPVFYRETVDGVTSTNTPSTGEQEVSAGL
Give just the numeric value; % need not be written.

**Q:** Find remaining activity at 10 µM (CCR2 (Homo sapiens)) for the entry "Cc1c(NCc2ccc(C(C)(C)C)cc2)ncnc1C(=O)N1CCCN(C2CCOCC2)CC1"
**A:** 13

**Q:** Find remaining activity at 10 µM (CCR2 (Homo sapiens)) for the entry Cc1nc(NCC2COc3ccccc3C2)c(C)c(C(=O)N2CCC(N3CCC(N(C)S(C)(=O)=O)CC3)CC2)n1 (stereo not shown)
**A:** 10

**Q:** Find remaining activity at 10 µM (CCR2 (Homo sapiens)) for the entry "Cc1c(NCc2ccc(Cl)cc2)ncnc1C(=O)N1CCC(N2CCC(N(C)S(C)(=O)=O)CC2)CC1"
**A:** 7

**Q:** Find remaining activity at 10 µM (CCR2 (Homo sapiens)) for the entry "Cc1c(NCc2ccc(Cl)c(Cl)c2)ncnc1C(=O)N1CCC(N2CCC(C(F)(F)F)CC2)CC1"
**A:** 30

* * *

biological target: CCR2 (Homo sapiens); construct: Membranes were prepared from THP-1 cells; endogenous in cells; test: CCR2 receptor membrane binding assay ([125I]MCP-1, THP-1 cell membranes, SPA beads); conditions: dissociation constant hKi; [125I]MCP-1 binding to THP-1 membranes
MEASURED QUANTITY: pKi
Remember the convention: pKi equals -log10 of concentration in molar.

**Q:** Find pKi (CCR2 (Homo sapiens)) for the entry Cc1c(NCC2CCc3ccccc3O2)ncnc1C(=O)N1CCC(N2CCC(N(C)S(C)(=O)=O)CC2)CC1 (stereo not shown) [Example 159ob]
**A:** 6.93

**Q:** Find pKi (CCR2 (Homo sapiens)) for the entry Cc1nc(NCc2ccc(Cl)c(Cl)c2)c(C)c(C(=O)N2CCC(N3CCC(O)CC3)CC2)n1 [Example 92]
**A:** 6.76

**Q:** Find pKi (CCR2 (Homo sapiens)) for the entry CCS(=O)(=O)N(C)C1CCN(C2CCN(C(=O)c3ncnc(NCc4ccc(Cl)c(Cl)c4)c3C)CC2)CC1 [Example 35]
**A:** 7.62

**Q:** Find pKi (CCR2 (Homo sapiens)) for the entry CNS(=O)(=O)C1CCN(C2CCN(C(=O)c3ncnc(NCc4ccc(C(C)(C)C)cc4)c3C)CC2)CC1 [Example 221]
**A:** 6.76

**Q:** Find pKi (CCR2 (Homo sapiens)) for the entry Cc1c(NCC2COc3ccccc3C2)ncnc1C(=O)N1CCC(N2CCC(O)CC2)CC1 (stereo not shown) [Example 19]
**A:** 6.57

**Q:** Find pKi (CCR2 (Homo sapiens)) for the entry CO[C@H]1CCN(C2CCN(C(=O)c3ncnc(NCc4ccc(C(C)(C)C)cc4)c3C)CC2)C1 [Example 220]
**A:** 6.01

**Q:** Find pKi (CCR2 (Homo sapiens)) for the entry Cc1c(NC2CCC(c3ccccc3)CC2)ncnc1C(=O)N1CCC(N2CCC(O)CC2)CC1 (stereo not shown) [Example 22]
**A:** 6.33
